The values you see were collected from the supplement of paper PMC10065799.

Test system: c-Src
assay-procedure: phosphorylation enrichment, bacterial display (enrichment ratio); higher = better substrate or ligand; peptides without Tyr show the background;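 also: 11-residue human phosphosite peptides and single-mutation variants displayed on the E. coli surface, counted by deep sequencing, each peptide's frequency after selection divided by its frequency in the unselected input library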;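 also: frequency after pTyr selection over input frequency; kinase dosed for 20-30% of maximal phosphorylation in three min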
readout-label: phosphorylation enrichment
# print the numeric value only

Sample records with phosphorylation enrichment:
>  <sequence-code>
TKQLTYEEQFL [PIK3C3_Y310_D314Y_YF]

>  <assayed-system>
c-Src

>  <phosphorylation enrichment>
0.5

$$$$
>  <sequence-code>
LRVKMYNFLRS [ADGRG7_Y760]

>  <assayed-system>
c-Src

>  <phosphorylation enrichment>
0.868

$$$$
>  <sequence-code>
RHAASYSSDSE [REPS1_Y116]

>  <assayed-system>
c-Src

>  <phosphorylation enrichment>
0.607

$$$$
>  <sequence-code>
GIVTGYLVLKE [DNMT3B_Y588_A585V]

>  <assayed-system>
c-Src

>  <phosphorylation enrichment>
0.448

$$$$

Answer with reported phosphorylation enrichment of RLLVVYPWTRR [HBB_Y36_Q40R]
0.68

Answer with reported phosphorylation enrichment of VCHELYNTIRD [PBRM1_Y54]
1.38

Answer with reported phosphorylation enrichment of VFSTDCFRVGG [NTRK2_Y706_Y706C_YF]
0.44

Answer with reported phosphorylation enrichment of ELTSVYDSRAR [SENP1_Y349]
1.03

Answer with reported phosphorylation enrichment of SNNYIYTTLGV [FAM83B_Y639_K640T]
5.7

Answer with reported phosphorylation enrichment of ASENVYVNIAH [CTSC_Y150]
2.21

Answer with reported phosphorylation enrichment of IGRGSYAKVLL [PRKCZ_Y263]
0.34

Answer with reported phosphorylation enrichment of LKGQVYILGWE [ASS1_Y359_R363W]
0.575

Answer with reported phosphorylation enrichment of GVRLYYRVRES [RB1_Y454_M457R]
0.285

Answer with reported phosphorylation enrichment of SVVVPSEPPEV [TP53_Y220_Y220S]
0.449

---

assayed-system: Fyn (UniProt P06241)
Sequence (P06241 whole entry, looked up): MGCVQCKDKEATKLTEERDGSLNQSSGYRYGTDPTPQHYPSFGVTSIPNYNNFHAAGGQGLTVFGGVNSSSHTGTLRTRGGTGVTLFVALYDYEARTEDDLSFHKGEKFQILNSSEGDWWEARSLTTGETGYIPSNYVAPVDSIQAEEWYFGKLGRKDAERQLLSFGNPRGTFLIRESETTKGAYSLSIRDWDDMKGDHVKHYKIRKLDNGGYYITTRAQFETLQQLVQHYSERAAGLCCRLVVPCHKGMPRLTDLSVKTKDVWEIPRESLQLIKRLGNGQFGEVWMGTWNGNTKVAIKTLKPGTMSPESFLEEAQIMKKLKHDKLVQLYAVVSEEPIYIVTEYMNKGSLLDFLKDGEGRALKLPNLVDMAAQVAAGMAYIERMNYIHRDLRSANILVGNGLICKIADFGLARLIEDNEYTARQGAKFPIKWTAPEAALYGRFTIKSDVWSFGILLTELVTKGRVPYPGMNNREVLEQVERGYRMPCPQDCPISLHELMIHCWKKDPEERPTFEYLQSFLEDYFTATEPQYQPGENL
assay-procedure: phosphorylation enrichment, bacterial display (enrichment ratio); higher = better substrate or ligand; peptides without Tyr show the background
Entries annotated with measured phosphorylation enrichment

Sample records with phosphorylation enrichment:
>  <sequence-code>
AAAAVYTFLPD [MYORG_Y36_M35V]

>  <phosphorylation enrichment>
8.32

$$$$
>  <sequence-code>
PDGREYIYVDP [PDGFRA_Y572_H570R]

>  <phosphorylation enrichment>
1.07

$$$$

Next:
Answer with reported phosphorylation enrichment of LEGAKYVSHGA [ASS1_Y113_R108L]
0.973

---

System: c-Src
assay-procedure: phosphorylation enrichment, bacterial display (enrichment ratio); higher = better substrate or ligand; peptides without Tyr show the background
Rule: phosphorylation enrichment of 0.6 or more gives Met; anything lower gives Not met.

Look over these answered cases.
>  <sequence-code>
GFSRHCEDGFP [CTNND1_Y217_Y217C_YF]

>  <label>
Not met

$$$$
>  <sequence-code>
RVFRDYVLKSA [HTATIP2_Y111_D108Y_YF]

>  <label>
Not met

$$$$
>  <sequence-code>
GFPVHYTDVSN [DNMT3B_Y815]

>  <label>
Not met

$$$$
>  <sequence-code>
YFRDGYMPRQY [GSS_Y270]

>  <label>
Not met

$$$$
>  <sequence-code>
DYLEKYYKFGS [NNMT_Y24]

>  <label>
Met

$$$$

Decide: phosphorylation enrichment of PGVDIYVSPNM [PADI3_Y51_I52V] >= 0.6?
Met

Decide: phosphorylation enrichment of IEELTYVIKQD [STX5_Y137_I138V] >= 0.6?
Met

Decide: phosphorylation enrichment of PASLSYLSFEG [EXOSC3_Y143] >= 0.6?
Met

Decide: phosphorylation enrichment of PPQFSYGLQTQ [SRA1_Y35] >= 0.6?
Not met

Decide: phosphorylation enrichment of GTTIHYNFMCN [TP53_Y234_C229G_YF] >= 0.6?
Not met

Decide: phosphorylation enrichment of SVVMPYEPPEV [TP53_Y220_V218M] >= 0.6?
Not met

Decide: phosphorylation enrichment of QKMFDYLKEKK [RYR2_Y3780_L3778F] >= 0.6?
Not met

Decide: phosphorylation enrichment of SVVVPDEPPEV [TP53_Y220_Y220D] >= 0.6?
Not met

Decide: phosphorylation enrichment of HLVLNYGVCFC [JAK2_Y613_V617F] >= 0.6?
Met
